Test: canonical NF-kB pathway blockers in HEK293 – cell-based, flow cytometry, eGFP/dsRED, dry powder, selectivity assay for LMP1 NF-kB inhibitor project, dose response (AID 652043)
Conditions: HEK293 TNFa-induced NF-kB eGFP reporter, flow cytometry, 16 h; at 19.5 µM (top of the series)
Kindly supply the reported activity change, negative = inhibition values for the records listed here.
Numbers only, in %.

Sample answers from the record:
[[record]]
structure_smiles = "CN(C)c1ccc2c(c1)[C@@H]1C[C@@H](CC(=O)NCCc3ccccc3)O[C@@H](CO)[C@@H]1O2"
experimental_result = -3.65

[[record]]
structure_smiles = "CN(C)c1ccc2c(c1)[C@@H]1C[C@@H](CC(=O)NCc3ccc4c(c3)OCO4)O[C@@H](CO)[C@@H]1O2"
experimental_result = -10.4

[[record]]
structure_smiles = "CN(C)c1ccc2c(c1)[C@@H]1C[C@@H](CC(=O)NC3CCCCC3)O[C@@H](CO)[C@@H]1O2"
experimental_result = -7.37


Now, please, on to the next molecule.
Input line: So what's the measured activity change, negative = inhibition for this one? "COCCNC(=O)C[C@H]1CC[C@@H]2[C@H](COc3ccc(NC(=O)c4cc(C)on4)cc3C(=O)N2C)O1"
Output line: -8.48
